Molecular target: Thromboxane A2 receptor (Rattus norvegicus)
Sequence (P34978 whole entry): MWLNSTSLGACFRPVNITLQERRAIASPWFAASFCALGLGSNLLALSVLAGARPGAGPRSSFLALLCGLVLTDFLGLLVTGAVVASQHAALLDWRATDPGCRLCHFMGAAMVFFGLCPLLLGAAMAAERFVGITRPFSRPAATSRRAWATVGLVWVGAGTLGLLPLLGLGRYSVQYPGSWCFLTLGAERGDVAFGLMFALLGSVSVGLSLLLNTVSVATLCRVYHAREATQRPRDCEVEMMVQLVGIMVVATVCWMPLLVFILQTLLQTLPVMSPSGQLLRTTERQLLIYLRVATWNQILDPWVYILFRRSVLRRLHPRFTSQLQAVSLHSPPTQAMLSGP
Assay: In vitro thromboxane A2 receptor antagonism through inhibition of U-46619-induced contraction of rat isolated thoracic aortic strip
Type: functional
Conditions: read-out: pA2 (converted)
MEASUREMENT_TYPE: Kb (nM)

COMPOUND	UNITS_OF_MEASURE	Kb
NC(=O)c1ccccc1-c1ccc(COC2CC[C@H](N3CCCCCC3)[C@H]2OC/C=C\CCC(=O)O)cc1 (stereo partly specified)	nM	15.8

1 = NC(=O)Nc1ccccc1-c1ccc(COC2CC[C@H](N3CCCCCC3)[C@H]2OC/C=C\CCC(=O)O)cc1 (stereo partly specified)
2 = O=C(O)CC/C=C\CO[C@H]1C(OCc2ccc(-c3ccccc3O)cc2)CC[C@@H]1N1CCCCCC1 (stereo partly specified)
3 = CC(=O)NCc1ccccc1-c1ccc(COC2CC[C@H](N3CCCCCC3)[C@H]2OC/C=C\CCC(=O)O)cc1 (stereo partly specified)
Ask | Number of compounds to sort: 3. Sort criterion: Kb, ascending. Rank the items, then write their labels in that order.
Reply | 2, 1, 3
(2: 20 nM, 1: 63.1 nM, 3: 126 nM)

P = O=C(O)CC/C=C\CO[C@H]1[C@@H](OCc2ccc(-c3ccc(CO)cc3)cc2)CC[C@@H]1N1CCCCCC1
Q = O=C(O)CC/C=C\CO[C@H]1C(OCc2ccc(-c3ccccc3CO)cc2)CC[C@@H]1N1CCCCCC1 (stereo partly specified)
R = O=C(O)CC/C=C\CO[C@H]1[C@@H](OCc2ccc(-c3cccc(CO)c3)cc2)CC[C@@H]1N1CCCCCC1
S = CNS(=O)(=O)Cc1ccc(-c2ccc(COC3CC[C@H](N4CCCCCC4)[C@H]3OC/C=C\CCC(=O)O)cc2)cc1 (stereo partly specified)
T = CS(=O)(=O)Nc1ccccc1-c1ccc(COC2CC[C@H](N3CCCCCC3)[C@H]2OC/C=C\CCC(=O)O)cc1 (stereo partly specified)
Ask | Rank entries according to their Kb, from the largest number down. Rank the items, then write their labels in that order.
Reply | R, P, S, Q, T
(R: 79.4 nM, P: 50.1 nM, S: 15.8 nM, Q: 6.31 nM, T: 3.98 nM)

1 = CS(=O)(=O)Nc1ccccc1-c1ccc(CO[C@H]2CC[C@H](N3CCCCCC3)[C@H]2OC/C=C\CCC(=O)O)cc1
2 = O=C(O)CC/C=C\CO[C@H]1[C@@H](OCc2ccc(-c3ccccc3)cc2)CC[C@@H]1N1CCCCCC1
3 = CC(=O)NCc1ccc(-c2ccc(COC3CC[C@H](N4CCCCCC4)[C@H]3OC/C=C\CCC(=O)O)cc2)cc1 (stereo partly specified)
4 = O=C(O)CC/C=C\CO[C@H]1[C@@H](OCc2ccc(-c3ccccc3CO)cc2)CC[C@@H]1N1CCCCCC1
Ask | Number of compounds to sort: 4. Sort criterion: Kb, ascending. Rank the items, then write their labels in that order.
Reply | 4, 3, 2, 1
(4: 12.6 nM, 3: 20 nM, 2: 39.8 nM, 1: 63.1 nM)

---

Biological target: Thromboxane A2 receptor (Homo sapiens, UniProt P21731)
Sequence (P21731 whole entry): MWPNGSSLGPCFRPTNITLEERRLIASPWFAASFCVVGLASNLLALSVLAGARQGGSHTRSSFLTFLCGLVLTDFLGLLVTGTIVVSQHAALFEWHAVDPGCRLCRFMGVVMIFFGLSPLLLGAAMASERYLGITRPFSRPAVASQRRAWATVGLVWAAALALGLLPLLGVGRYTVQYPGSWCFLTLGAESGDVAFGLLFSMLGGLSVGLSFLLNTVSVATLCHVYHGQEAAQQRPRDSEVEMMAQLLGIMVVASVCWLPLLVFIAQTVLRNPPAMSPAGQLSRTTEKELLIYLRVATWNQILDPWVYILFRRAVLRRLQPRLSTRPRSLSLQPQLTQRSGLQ
Assay: In vitro thromboxane A2 receptor antagonism through inhibition of U-46619-induced platelet aggregation in human whole blood
Assay type: functional, tissue-based
Conditions: read-out: pA2 (converted)
MEASUREMENT_TYPE: Kb (nM)

COMPOUND	Kb [nM]
CS(=O)(=O)Nc1cccc(-c2ccc(COC3CC[C@H](N4CCCCCC4)[C@H]3OC/C=C\CCC(=O)O)cc2)c1 (stereo partly drawn)	12.6
CS(=O)(=O)Nc1ccccc1-c1ccc(COC2CC[C@H](N3CCCCCC3)[C@H]2OC/C=C\CCC(=O)O)cc1 (stereo partly drawn)	10
O=C(O)CC/C=C\CO[C@H]1[C@@H](OCc2ccc(-c3ccccc3CO)cc2)CC[C@@H]1N1CCCCCC1	1.58
CC(=O)NCc1ccccc1-c1ccc(COC2CC[C@H](N3CCCCCC3)[C@H]2OC/C=C\CCC(=O)O)cc1 (stereo partly drawn)	25.1

A = NC(=O)Cc1ccc(-c2ccc(COC3CC[C@H](N4CCCCCC4)[C@H]3OC/C=C\CCC(=O)O)cc2)cc1 (stereo partly drawn)
B = O=C(O)CC/C=C\CO[C@H]1C(OCc2ccc(-c3ccccc3CCO)cc2)CC[C@@H]1N1CCCCCC1 (stereo partly drawn)
Ask | Sorting by Kb in descending order, would A or B appear first? Please reply using the label of the selected record.
Reply | A

The reported measurements were obtained from ChEMBL document CHEMBL1125965.
